# system-tested: p38α MAPK (Homo sapiens, UniProt Q16539)
# Sequence (Q16539 2-360): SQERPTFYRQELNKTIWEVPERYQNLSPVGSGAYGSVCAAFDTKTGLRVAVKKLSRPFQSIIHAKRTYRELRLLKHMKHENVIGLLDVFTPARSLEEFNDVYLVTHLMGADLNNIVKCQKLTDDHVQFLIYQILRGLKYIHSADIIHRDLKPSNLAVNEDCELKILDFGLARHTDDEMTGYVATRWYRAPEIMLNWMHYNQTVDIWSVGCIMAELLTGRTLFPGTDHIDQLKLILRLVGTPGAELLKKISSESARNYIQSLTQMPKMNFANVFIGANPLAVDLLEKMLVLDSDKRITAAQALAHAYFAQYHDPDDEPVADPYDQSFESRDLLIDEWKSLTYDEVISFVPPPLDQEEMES
quantity-measured: pKd
Please report pKd as the negative decimal logarithm of the molar concentration, giving only the number.

Q: Lab request: please report pKd under test system p38α MAPK (Homo sapiens, UniProt Q16539) for COC(=O)[C@@]12OC[C@]34[C@H]([C@@H](O)[C@@H]1O)[C@@]1(C)CC(=O)C(O)=C(C)[C@@H]1C[C@H]3OC(=O)[C@H](OC(=O)CC(C)C)[C@@H]24
A: 7.51
